Experiment: Microsomal stability
Type: in vitro ADME, dog
Conditions: 1 μM inhibitor, microsomes 1 mg/mL, with NADPH, 37°C, 30 min; compound remaining, average ± SD (n = 3)
Stability (% without microsomes) Dog liver microsomes NADPH + by entry:
The reply should be a number in %, with the unit left off.

Study these solved cases before continuing.
Report Stability (% without microsomes) Dog liver microsomes NADPH + for O=C(Nc1ccc(OC(F)(F)F)cc1)N[C@H]1CC[C@H](Oc2ccc(C(=O)O)cc2)CC1 please.
100

Same question, N#CNC(=O)CCCCCCCCCCCNC(=O)NC12CC3CC(CC(C3)C1)C2 this time
34

Continuing:
Report Stability (% without microsomes) Dog liver microsomes NADPH + for O=C(O)CCCCCCCCCCCNC(=O)NC12CC3CC(CC(C3)C1)C2 please.
66

Same question, O=C(NCCCCOc1ccc(F)cc1)NC12CC3CC(CC(C3)C1)C2 this time
8

Reference for the values: paper PMC7479175
